Test system: RARa homodimer (NR concentration 270 nM)
protocol: PBM binding z-score (relative to random genomic background probes); higher = stronger binding; sequences stand for … in GC…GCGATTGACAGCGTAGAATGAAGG
Please mark 1 (yes) if the recorded PBM binding z-score is equal to or greater than -0.04, and 0 (no) if it falls below.

sequence	classification
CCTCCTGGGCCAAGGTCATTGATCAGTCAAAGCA	0 (no)

Prompt: Could you please find out whether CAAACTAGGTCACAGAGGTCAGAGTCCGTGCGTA has PBM binding z-score that meets -0.04 or exceeds it?
Completion: 1 (yes)

Prompt: Could you please find out whether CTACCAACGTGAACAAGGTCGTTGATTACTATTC has PBM binding z-score that meets -0.04 or exceeds it?
Completion: 1 (yes)

====

Tested on: PXR:RXRa (NR concentration 270 nM, RXRa partner concentration 90 nM)
protocol: PBM binding z-score (relative to random genomic background probes); higher = stronger binding; sequences stand for … in GC…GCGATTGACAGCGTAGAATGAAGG
Assign PBM binding z-score to each entry below.
Answers are plain numbers.

A selection of reference data follows.
sequence	measured.number
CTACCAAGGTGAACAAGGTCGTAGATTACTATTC	2.37
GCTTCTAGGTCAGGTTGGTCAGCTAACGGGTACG	0.562
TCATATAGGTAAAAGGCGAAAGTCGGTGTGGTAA	0.309

Value sought for every listed sequence: PBM binding z-score.
1. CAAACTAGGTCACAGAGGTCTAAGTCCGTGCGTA
2. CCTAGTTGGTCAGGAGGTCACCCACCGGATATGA
3. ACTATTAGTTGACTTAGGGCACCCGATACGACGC
4. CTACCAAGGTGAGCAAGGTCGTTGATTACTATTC

Completion:
1. 2.54
2. 4.07
3. -0.159
4. 1.79

Value sought for every listed sequence: PBM binding z-score.
1. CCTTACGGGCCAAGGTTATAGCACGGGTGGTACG
2. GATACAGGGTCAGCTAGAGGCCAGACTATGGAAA

Completion:
0.0685
2.88

====

System: LXRb homodimer (NR concentration 270 nM)
protocol: PBM binding z-score (relative to random genomic background probes); higher = stronger binding; sequences stand for … in GC…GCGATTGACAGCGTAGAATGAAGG
The following ranges of PBM binding z-score define the classes used here: lower bin: < -0.5; middle bin: ≥ -0.5 and < 0.2; upper bin: ≥ 0.2

sequence	classification
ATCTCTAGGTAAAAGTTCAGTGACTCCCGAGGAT	upper bin
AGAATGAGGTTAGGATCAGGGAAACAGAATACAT	middle bin
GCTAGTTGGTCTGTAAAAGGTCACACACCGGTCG	upper bin
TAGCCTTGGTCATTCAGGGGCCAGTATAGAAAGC	middle bin

Would you kindly look at the next entry?
Prompt: For the record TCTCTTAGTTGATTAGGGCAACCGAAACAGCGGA , report the class its PBM binding z-score corresponds to.
Completion: upper bin

====

System: RARb homodimer (NR concentration 270 nM)
protocol: PBM binding z-score (relative to random genomic background probes); higher = stronger binding; sequences stand for … in GC…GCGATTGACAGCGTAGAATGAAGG
Assign PBM binding z-score to each entry below.
Numbers only.

A selection of reference data follows.
sequence	PBM binding z-score
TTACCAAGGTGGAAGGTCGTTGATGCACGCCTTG	0.907
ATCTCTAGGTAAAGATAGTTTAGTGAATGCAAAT	0.204
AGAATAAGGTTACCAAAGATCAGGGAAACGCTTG	1.1
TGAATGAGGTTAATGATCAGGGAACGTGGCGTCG	0.436
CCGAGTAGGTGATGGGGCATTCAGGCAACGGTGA	0.69

Then there is this sequence:
Prompt: Under RARb homodimer (NR concentration 270 nM): PBM binding z-score value of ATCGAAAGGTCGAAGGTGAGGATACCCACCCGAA ?
Completion: 2.56

====

Tested on: RARb:RXRa (NR concentration 270 nM, RXRa partner concentration 90 nM)
protocol: PBM binding z-score (relative to random genomic background probes); higher = stronger binding; sequences stand for … in GC…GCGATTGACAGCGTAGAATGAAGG
Assign PBM binding z-score to each entry below.
Answers are plain numbers.

A selection of reference data follows.
sequence	PBM binding z-score
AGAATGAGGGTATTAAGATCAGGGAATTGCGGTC	0.4
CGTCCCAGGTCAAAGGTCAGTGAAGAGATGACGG	5.7
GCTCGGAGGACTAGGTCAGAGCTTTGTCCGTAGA	1.27
CCTAGTTGGTCAGGAGGTCACACACCGGATATGA	3.82
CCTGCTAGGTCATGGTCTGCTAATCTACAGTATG	3.87
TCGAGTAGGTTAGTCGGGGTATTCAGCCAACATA	0.0838
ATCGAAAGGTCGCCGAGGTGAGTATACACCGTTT	4.25
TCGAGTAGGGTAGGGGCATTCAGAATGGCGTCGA	0.666
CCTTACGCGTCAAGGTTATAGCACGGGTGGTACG	0.97
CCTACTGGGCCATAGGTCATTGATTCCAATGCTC	2.34

Value sought for every listed sequence: PBM binding z-score.
1. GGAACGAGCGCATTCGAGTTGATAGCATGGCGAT
2. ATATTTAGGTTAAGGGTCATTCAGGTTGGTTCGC
3. TAGCCTAGGTCATGGGCCACTATACCACGCGAAC
4. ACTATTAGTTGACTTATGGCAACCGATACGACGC
5. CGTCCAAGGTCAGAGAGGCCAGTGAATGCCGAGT

Completion:
1. -1.26
2. 3.68
3. 3.8
4. 0.351
5. 4.62

Value sought for every listed sequence: PBM binding z-score.
1. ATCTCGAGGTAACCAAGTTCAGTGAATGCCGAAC
2. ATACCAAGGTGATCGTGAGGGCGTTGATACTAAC

Completion:
1: 1.5; 2: 0.796

====

Test system: PPARg DBDmut:RXRa IVT, anti-PPARg (DBD mutation: PPARg1 K132A/R137A, NR concentration 270 nM, RXRa partner concentration 90 nM)
protocol: PBM binding z-score (relative to random genomic background probes); higher = stronger binding; sequences stand for … in GC…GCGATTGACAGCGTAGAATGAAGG
value.type: PBM binding z-score
Answers are plain numbers.

A selection of reference data follows.
sequence	PBM binding z-score
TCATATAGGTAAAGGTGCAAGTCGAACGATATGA	0.688
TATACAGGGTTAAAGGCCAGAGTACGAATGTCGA	1.23
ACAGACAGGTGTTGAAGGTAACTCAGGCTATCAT	-0.275
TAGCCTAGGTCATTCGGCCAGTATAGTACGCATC	-0.386
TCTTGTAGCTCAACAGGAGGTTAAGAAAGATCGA	0.889
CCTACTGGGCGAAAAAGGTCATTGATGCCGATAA	-0.234
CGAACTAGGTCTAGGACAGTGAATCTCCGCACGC	-0.66
AATACAGGGTCACTAGGCCAGAGTTGGTACGAAT	1.25
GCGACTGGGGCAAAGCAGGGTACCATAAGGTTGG	-0.359
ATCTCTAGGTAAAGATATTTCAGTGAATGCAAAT	1.53

Value sought for every listed sequence: PBM binding z-score.
1. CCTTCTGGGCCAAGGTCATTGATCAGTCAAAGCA
2. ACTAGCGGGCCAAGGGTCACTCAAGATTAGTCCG
3. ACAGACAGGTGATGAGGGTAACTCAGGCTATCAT
4. AATACAGGGTCACTAAGCCAGAGTAGGTACGAAT
5. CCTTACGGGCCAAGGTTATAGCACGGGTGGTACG
6. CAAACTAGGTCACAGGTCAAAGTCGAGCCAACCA

Completion:
1: -0.283; 2: -0.682; 3: -0.934; 4: 1.91; 5: -1.25; 6: 4.16

Value sought for every listed sequence: PBM binding z-score.
1. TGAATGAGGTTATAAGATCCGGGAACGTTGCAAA
2. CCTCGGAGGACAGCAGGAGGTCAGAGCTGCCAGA
3. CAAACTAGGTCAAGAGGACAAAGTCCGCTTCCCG
4. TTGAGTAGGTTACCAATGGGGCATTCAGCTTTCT

Completion:
1.46
-1.03
2.16
0.923

Value sought for every listed sequence: PBM binding z-score.
1. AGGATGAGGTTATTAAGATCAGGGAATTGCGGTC
2. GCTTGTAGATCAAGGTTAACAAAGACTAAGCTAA
3. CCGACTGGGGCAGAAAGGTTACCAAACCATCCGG
4. GCAGCTAGGTCAGGTTGGTCAGCTAACGGGTACG
5. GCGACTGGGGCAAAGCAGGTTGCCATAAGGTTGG
6. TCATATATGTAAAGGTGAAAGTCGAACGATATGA
7. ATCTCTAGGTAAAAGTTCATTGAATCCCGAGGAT

Completion:
1. 0.904
2. -0.0951
3. -0.76
4. -0.736
5. -0.486
6. 1.26
7. 1.8

Value sought for every listed sequence: PBM binding z-score.
1. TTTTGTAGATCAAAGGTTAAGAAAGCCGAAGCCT
2. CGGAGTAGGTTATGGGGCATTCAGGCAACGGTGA
3. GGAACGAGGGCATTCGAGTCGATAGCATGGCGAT
4. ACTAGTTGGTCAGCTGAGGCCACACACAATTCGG
5. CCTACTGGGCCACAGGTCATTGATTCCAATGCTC
6. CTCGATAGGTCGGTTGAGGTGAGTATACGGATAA
7. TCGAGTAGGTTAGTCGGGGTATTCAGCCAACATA
8. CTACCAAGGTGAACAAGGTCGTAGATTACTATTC

Completion:
1: 0.975; 2: 0.983; 3: -0.0559; 4: 0.862; 5: -0.262; 6: 0.83; 7: -0.225; 8: 0.349

Value sought for every listed sequence: PBM binding z-score.
1. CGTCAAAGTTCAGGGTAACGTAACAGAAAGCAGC
2. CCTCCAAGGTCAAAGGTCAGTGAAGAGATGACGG
3. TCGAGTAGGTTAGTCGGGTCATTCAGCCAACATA
4. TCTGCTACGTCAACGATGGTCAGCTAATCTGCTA
5. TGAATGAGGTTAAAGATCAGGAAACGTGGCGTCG

Completion:
1: 0.319; 2: 0.87; 3: -0.174; 4: -0.273; 5: 0.769

Value sought for every listed sequence: PBM binding z-score.
1. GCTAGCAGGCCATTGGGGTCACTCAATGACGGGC
2. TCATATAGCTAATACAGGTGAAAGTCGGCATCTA
3. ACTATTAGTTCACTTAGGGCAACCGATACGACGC

Completion:
1: -0.918; 2: 0.761; 3: 1.13
